- measurement.description: MultiTox-Fluor Cytotoxicity Assay - LYMP1-001 - Dead Cells (AID 946);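 note: cells exposed to compound for 16 h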
- assay.context: LYMP1-001 lymphoblastoid cells, dead-cell protease fluorescence; series mostly up to 92.2 µM
Results filed as inconclusive are left out. Activity calls are given as the source filed them. Calls come from the whole dose curve; as a rule, active = well fitted cell-killing curve with a large enough effect; inconclusive = small, poorly fitted or top-dose-only effect, or effect the other way; inactive = flat fitted curve, though single readings scatter.
Pick one and only one: Y = active, N = inactive

IN: Called result for `O=C1c2c(O)cccc2Cc2cccc(O)c21`
OUT: N

IN: Test call for this compound, please: `NC(=O)c1ncn([C@@H]2O[C@H](CO)[C@@H](O)[C@H]2O)n1`
OUT: N

IN: For this compound, state the assay outcome: `Oc1cccc(O)c1`
OUT: N

IN: Check the results log: what was the call for `CCCCCCCCCCCCOS(=O)(=O)O` ?
OUT: N

IN: Test call, this compound: `Cc1c(O)cccc1C(=O)N[C@@H](CSc1ccccc1)[C@H](O)CN1C[C@H]2CCCC[C@H]2C[C@H]1C(=O)NC(C)(C)C`
OUT: Y

IN: Per the records of this test, what outcome belongs to `Cc1cc(CC(=O)O)n(C)c1C(=O)c1ccc(Cl)cc1` ?
OUT: N

* * *

- measurement.description: Cell Viability - LYMP2-013 (AID 970);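 note: cells exposed to compound for 24 h at 37 °C; nearly all actives have a fitted effect of over 55% in size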; note: potency is the fitted concentration of half-maximal effect
- assay.context: LYMP2-013 lymphoblastoid cells viability; series mostly up to 92.2 µM
Records with an inconclusive call do not appear. Calls of active or inactive are those of the source. Calls come from the whole dose curve; as a rule, active = well fitted cell-killing curve with a large enough effect; inconclusive = small, poorly fitted or top-dose-only effect; inactive = flat fitted curve, though single readings scatter.
measurement.kind: Potency

See these solved cases before continuing.
CC12CCC(CC1)C(C)(C)O2; inactive
Cc1c(O)cccc1C(=O)N[C@@H](CSc1ccccc1)[C@H](O)CN1C[C@H]2CCCC[C@H]2C[C@H]1C(=O)NC(C)(C)C; 50.1 µM (active)
CC1(C)[C@@H]2CC[C@@]1(C)C(=O)C2; inactive
O=C1c2c(O)cccc2Cc2cccc(O)c21; inactive
[Cl][In]([Cl])[Cl]; inactive

IN: Report Potency for `NC(=O)c1ncn([C@@H]2O[C@H](CO)[C@@H](O)[C@H]2O)n1`
OUT: inactive

* * *

- measurement.description: Cell Viability - LYMP1-003 - Assay at 40 hr (AID 964); note: % is set by controls: 0 for no effect and ±100 for the full control effect; nearly all actives have a fitted effect of over 60% in size
- assay.context: LYMP1-003 lymphoblastoid viability; series mostly up to 92.2 µM
Results filed as inconclusive are left out. Activity calls are given as the source filed them. Calls come from the whole dose curve; as a rule, active = well fitted cell-killing curve with a large enough effect; inconclusive = small, poorly fitted or top-dose-only effect; inactive = flat fitted curve, though single readings scatter.
measurement.kind: outcome

COc1ccccc1O; inactive
O=C1c2c(O)cccc2Cc2cccc(O)c21; inactive
CCCCOC(=O)c1ccc(O)cc1; inactive

* * *

- measurement.description: Drug repurposing screens with cells derived from glioblastoma tumor samples (AID 1345199); note: % is set by controls: 0 for no effect and ±100 for the full control effect; nearly all actives have a fitted effect of over 40% in size
- assay.context: GBM patient neurospheres viability, ATP luminescence, 48 h; at 21.3 µM (top of the series); tumour line A
Records with an inconclusive call do not appear. The source made the active and inactive calls. Calls come from the whole dose curve; as a rule, active = well fitted inhibition curve with a large enough effect; inconclusive = small, poorly fitted or top-dose-only effect; inactive = flat fitted curve, though single readings scatter.
measurement.kind: activity, negative = cell killing

IN: Give reported activity, negative = cell killing value for `C#CCN(C)Cc1ccccc1`
OUT: -32.1% (inactive)

IN: Give the reported activity, negative = cell killing for this compound. Cc1ncc([N+](=O)[O-])n1CC(O)CCl (centres undefined)
OUT: -11.7% (inactive)

IN: Report measured activity, negative = cell killing; entry is `Nc1ccc(S(=O)(=O)NC(=O)c2ccccc2)cc1`
OUT: -8.76% (inactive)

IN: Dear colleague, please send me the reported activity, negative = cell killing for `C[C@@H]1C[C@H]2[C@@H]3C[C@H](F)C4=CC(=O)C=C[C@]4(C)[C@@]3(F)[C@@H](O)C[C@]2(C)[C@@]1(O)C(=O)CO` when you can.
OUT: -20.6% (inactive)

IN: Answer with reported activity, negative = cell killing of `Cc1cc2c(cc1S(N)(=O)=O)S(=O)(=O)CCC2`
OUT: -0.554% (inactive)

IN: Fill in activity, negative = cell killing for record `NS(=O)(=O)c1cc2c(cc1Cl)NC(CSCc1ccccc1)=NS2(=O)=O`
OUT: -18.3% (inactive)

IN: Identify measured activity, negative = cell killing corresponding to `CCn1cc(C(=O)O)c(=O)c2cnc(N3CCNCC3)nc21`
OUT: -22% (inactive)

IN: Quickly give me recorded activity, negative = cell killing for `C/C(=C(\CCOP(=O)(O)O)SC(=O)c1ccccc1)N(C=O)Cc1cnc(C)nc1N`
OUT: -14% (inactive)

IN: Report activity, negative = cell killing for `C[C@H](N)[C@H](O)c1cccc(O)c1`
OUT: -12.7% (inactive)

* * *

- System: TAB109
- measurement.description: qHTS profiling for inhibitors of Plasmodium falciparum proliferation (AID 504749); note: nearly all actives have a fitted effect of over 60% in size
- assay.context: P. falciparum in erythrocytes, SYBR Green DNA, 72 h; series mostly up to 28.7 µM
Inconclusive results are not listed. Activity calls are given as the source filed them. Calls come from the whole dose curve; as a rule, active = well fitted inhibition curve with a large enough effect; inconclusive = small, poorly fitted or top-dose-only effect; inactive = flat fitted curve, though single readings scatter.
In this exercise, the only acceptable responses are active, inactive

IN: Field: outcome | Entry: `CCOc1nc2cccc(C(=O)O)c2n1Cc1ccc(-c2ccccc2-c2nn[nH]n2)cc1`
OUT: inactive

IN: Please share the test call associated with NC(CSCC(=O)O)C(=O)O (centres undefined) .
OUT: inactive

IN: Answer briefly: the call reported for `CC1=C(/C=C/C(C)=C/C=C/C(C)=C/C(=O)O)C(C)(C)CCC1` in this assay.
OUT: inactive

IN: In this assay, the call recorded for CC(O)CN(CCN(CC(C)O)CC(C)O)CC(C)O (centres undefined) was what?
OUT: inactive

IN: Assay outcome for `Oc1cccc(O)c1` : what was it?
OUT: inactive

IN: Entry `NCCNCCNCCN` : call = ?
OUT: inactive

IN: How was `O=C1O[C@H]([C@@H](O)CO)C(O)=C1O` classified in this test?
OUT: inactive

IN: What did this assay record as the result for `O=C(CCCN1CCN(c2ccccn2)CC1)c1ccc(F)cc1` ?
OUT: inactive

IN: // param item: `C[C@](N)(Cc1ccc(O)cc1)C(=O)O` ; yields the recorded call
OUT: inactive

IN: Please let me know the test result on file for `NC(=O)NNc1ccccc1` .
OUT: inactive

IN: Status in this test for `CC12CCC(CC1)C(C)(C)O2` ?
OUT: inactive

IN: I'd appreciate the recorded outcome for CC1=C(CC(=O)O)c2cc(F)ccc2/C1=C\c1ccc(S(C)=O)cc1 (centres undefined) from this test.
OUT: inactive

IN: What classification did `Nc1nc2c(ncn2CCC(CO)CO)c(=O)[nH]1` end up with in this test?
OUT: inactive

IN: Please indicate how the test categorized `CCCOC(=O)c1ccccc1` .
OUT: inactive

IN: Per the assay record, what outcome was assigned to `CCCc1c(OCCCCc2nn[nH]n2)ccc(C(C)=O)c1O` ?
OUT: inactive

IN: Record lookup: outcome of this test for COc1ccc2[nH]c(S(=O)Cc3ncc(C)c(OC)c3C)nc2n1 (centres undefined) ?
OUT: active

IN: Write down the call the test reported for this compound. Item: `COc1ccc(S(=O)(=O)Nc2nnc(CC(C)C)s2)cc1`
OUT: inactive

IN: What did this assay record as the result for `CCOc1ccc2ccccc2c1C(=O)N[C@@H]1C(=O)N2[C@@H]1SC(C)(C)[C@@H]2C(=O)O` ?
OUT: inactive

IN: Which outcome did this test record for the compound `CC(=O)CCC(=O)O` ?
OUT: inactive

IN: Recorded test call requested for `O=C1c2c(O)cccc2Cc2cccc(O)c21`
OUT: inactive

IN: I would be grateful if you could indicate the recorded call for `COc1cc2[nH]c(=O)[nH]c(=O)c2cc1OC` .
OUT: inactive

IN: Lab log entry: CCCCCCCCCCCCCCCCCCOCC(O)CO (centres undefined) — outcome as called in the assay?
OUT: inactive

IN: Hi team, can someone confirm the assay call for `CCCCOc1cc(C(=O)OCCN(CC)CC)ccc1N` ?
OUT: inactive

IN: Dear colleague, could you share the recorded outcome for Cc1cc(C(C#N)c2ccc(Cl)cc2)c(Cl)cc1NC(=O)c1cc(I)cc(I)c1O (centres undefined) when you have a moment?
OUT: inactive

IN: Answer briefly: the call reported for `CCN(CC)CCNC(=O)c1c(C)[nH]c(/C=C2\C(=O)Nc3ccc(F)cc32)c1C` in this assay.
OUT: active

IN: What did the test return for `Cn1c(=O)c2c(ncn2CC2OCCO2)n(C)c1=O` ?
OUT: inactive

IN: Called result for `[O-][n+]1cccc(CO)c1`
OUT: inactive

IN: What did the test return for `C#CCN(C)Cc1ccccc1` ?
OUT: inactive

IN: Short answer needed: outcome of this test for `O=C(O)COc1nn(Cc2ccccc2)c2ccccc12` ?
OUT: inactive

IN: Each compound tested received a call. Report the one for `Nc1ccc(S(=O)(=O)Nc2ccccc2)cc1` .
OUT: inactive

IN: Which outcome was assigned to `O=c1[nH]c(=O)c2[nH]c(=O)[nH]c2[nH]1` in this test?
OUT: inactive

IN: For `N[C@@H](CSCCCO)C(=O)O` , which call appears in the assay record?
OUT: inactive

IN: What is the recorded call for this compound in the test? `Oc1cn2c(n1)Nc1ccc(Cl)c(Cl)c1C2`
OUT: inactive

IN: What did the test return for CC(C)(C)C(=O)C(Oc1ccc(Cl)cc1)n1ccnc1 (centres undefined) ?
OUT: active

IN: Which result was noted for this compound in the test: `CCCCCCCCCCCCOS(=O)(=O)O`
OUT: inactive

IN: // outcome(item) with item = `NCCNCCNCCNCCN`
OUT: inactive

IN: Test call, this compound: `Nc1ccc(S(=O)(=O)NC(=O)c2ccccc2)cc1`
OUT: inactive

IN: GET /call?item= `CCN(CC)CCSC(=O)C(c1ccccc1)c1ccccc1` returns the recorded outcome of this test.
OUT: inactive

IN: Any idea what this test logged for CSc1ccc2c(c1)N(CCC1CCCCN1C)c1ccccc1S2 (centres undefined) ?
OUT: active

IN: Please indicate how the test categorized `COc1ccc(Cl)cc1C(=O)NCCc1ccc(S(=O)(=O)NC(=O)NC2CCCCC2)cc1` .
OUT: inactive

IN: What is the recorded call for this compound in the test? `NC(=O)NC(=O)Cc1ccccc1`
OUT: inactive

IN: For this compound, state the assay outcome: `COC(=O)C1=C(C)NC(C)=C(C(=O)OC)C1c1ccccc1[N+](=O)[O-]`
OUT: inactive

IN: Look up the recorded call for `Cc1cccc(C)c1NC(=O)CN(CC(=O)O)CC(=O)O` in this test.
OUT: inactive

IN: Recorded test call requested for `Cc1ccc(C(C)C)cc2c(C)ccc1-2`
OUT: inactive
